Assay: NCI Yeast Anticancer Drug Screen. Data for the cln2 rad14 strain (AID 165)
Settings: S. cerevisiae cln2 rad14 strain, at 50.0 µM (retest, dose inferred, filed as 5.0), hits give high values
Compounds without any hit were thinned out: in the full panel of roughly 79,000, 15% have a hit.
Is growth inhibition at least 70%? Then Y. If not, N.

[
  {
    "COMPOUND": "CCC/C(=N\\O)S(=O)(=O)c1ccc(NN=O)nc1",
    "LABEL_CLASS": "N"
  },
  {
    "COMPOUND": "C=CC1(NC(=O)c2ccccc2)CCC(C(C)(C)C)CC1 (stereo unspecified)",
    "LABEL_CLASS": "Y"
  },
  {
    "COMPOUND": "Nc1ccc([N+](=O)[O-])cc1Nc1c2ccccc2nc2ccccc12",
    "LABEL_CLASS": "N"
  },
  {
    "COMPOUND": "Cc1c(N2CCCC2)cc2c(c1NC(=O)c1ccccc1Cl)C(C)(C)CC2(C)C",
    "LABEL_CLASS": "Y"
  },
  {
    "COMPOUND": "CC(=O)Nc1ccc(O)c(=O)cc1",
    "LABEL_CLASS": "Y"
  },
  {
    "COMPOUND": "O=C1c2cccc3cc4ccccc4c(c23)C(=O)N1CCCNCCNCCCN1C(=O)c2cccc3cc4ccccc4c(c23)C1=O",
    "LABEL_CLASS": "Y"
  },
  {
    "COMPOUND": "CCCCC/C(=C/C=C/c1ccc(Cl)cc1)CN(C)C",
    "LABEL_CLASS": "Y"
  },
  {
    "COMPOUND": "COC(=O)Oc1nn(C(=O)OC)c(=O)c2ccccc12",
    "LABEL_CLASS": "N"
  },
  {
    "COMPOUND": "COc1ccc(/C=C/c2cc(OC)c(OC)c(OC)c2)cc1O[Si](C)(C)C(C)(C)C",
    "LABEL_CLASS": "N"
  },
  {
    "COMPOUND": "CCCCCCC(Sc1n[nH]c(=O)[nH]c1=O)C(=O)OCC (stereo unspecified)",
    "LABEL_CLASS": "Y"
  },
  {
    "COMPOUND": "CC(=O)OCc1cc2c(s1)C(=O)c1sccc1C2=O",
    "LABEL_CLASS": "N"
  }
]
